target: Human adrenergic α1B receptor (Homo sapiens, UniProt P35368); experiment: Radioligand binding, adrenergic α1B (Protocol Group B); parameters: purchased Milipore (Millipore); details: 0.1 μM compound; Protocol Group B; read-out: Percentage inhibition of ligand binding, Adrenergic α1B (0.1 μM)
Sequence (P35368 whole entry): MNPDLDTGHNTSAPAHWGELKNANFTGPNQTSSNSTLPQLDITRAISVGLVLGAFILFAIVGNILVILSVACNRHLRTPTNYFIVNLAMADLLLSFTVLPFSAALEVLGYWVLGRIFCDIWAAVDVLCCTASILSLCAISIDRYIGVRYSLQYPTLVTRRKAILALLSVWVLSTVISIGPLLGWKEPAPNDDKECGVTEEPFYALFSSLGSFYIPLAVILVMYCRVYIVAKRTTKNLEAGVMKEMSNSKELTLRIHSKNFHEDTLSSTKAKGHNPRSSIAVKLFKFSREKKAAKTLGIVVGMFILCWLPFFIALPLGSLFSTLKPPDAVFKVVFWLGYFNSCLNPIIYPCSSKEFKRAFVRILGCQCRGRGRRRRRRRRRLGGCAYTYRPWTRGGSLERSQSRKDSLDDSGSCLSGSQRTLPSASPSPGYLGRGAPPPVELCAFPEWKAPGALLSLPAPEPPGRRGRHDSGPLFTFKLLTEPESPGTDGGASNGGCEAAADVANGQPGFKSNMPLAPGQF
As shown below, each of these compounds has a reported inhibition at 0.1 µM value.

Solved entries:
Cc1ccc2c(c1)c1c(n2CC(C)(O)c2cccnc2)CCN(CC(F)F)C1 (stereo not shown) | -6%
Cc1ccc2c(c1)c1c(n2CC(O)c2ccncc2)CC[N+]2([O-])CCCC12 (stereo not shown) | 53%
Cc1ccc2c(c1)c1c(n2CC(C)(O)c2cnc3ccccc3c2)CCN(C)C1 (stereo not shown) [compound 32] | -1%

Request the reported inhibition at 0.1 µM associated with CC(O)(Cn1c2c(c3cc(Cl)cc(F)c31)CN1CCCC1C2)c1ccncc1 (single isomer, unassigned) [86a]
2%

* * *

As shown below, each of these compounds has a reported Percentage inhibition of ligand binding, Adrenergic α1B (0.3 μM) value.
molecular target: Human adrenergic α1B receptor (Homo sapiens, UniProt P35368); test: Radioligand binding, adrenergic α1B (Protocol Group B); set-up: purchased Milipore (Millipore); details: 0.3 μM compound; Protocol Group B; 0.3 µM
Your answer is read as %, so omit the unit and give the number.

Cc1cc(F)cc2c3c(n(CC(C)(O)c4ccncc4)c12)CCN1CCCC31 (single isomer, unassigned) [77b] | 14

Request the reported Percentage inhibition of ligand binding, Adrenergic α1B (0.3 μM) associated with Cc1cc(F)c2c(c1)c1c(n2CC(C)(O)c2cccnc2)CC2CCCN2C1 (single isomer, unassigned) [61a]
18

Request the reported Percentage inhibition of ligand binding, Adrenergic α1B (0.3 μM) associated with Cc1cc(F)c2c(c1)c1c(n2CC(C)(O)c2ccncc2)CC2CCCN2C1 (single isomer, unassigned) [62b]
21

Request the reported Percentage inhibition of ligand binding, Adrenergic α1B (0.3 μM) associated with OC(Cn1c2c(c3cc(F)ccc31)C1CCCN1CC2)c1ccncc1 (single isomer, unassigned) [18a]
55

Request the reported Percentage inhibition of ligand binding, Adrenergic α1B (0.3 μM) associated with Cc1cc(F)c2c(c1)c1c(n2CC(O)c2ccncc2)CCN2CCCC12 (single isomer, unassigned) [137b]
94

Request the reported Percentage inhibition of ligand binding, Adrenergic α1B (0.3 μM) associated with Cc1ccc2c(c1)c1c(n2CC(C)(O)c2ccc(F)cc2)CC2CCC1N2C (single isomer, unassigned) [102d]
−5

Request the reported Percentage inhibition of ligand binding, Adrenergic α1B (0.3 μM) associated with CCCOC(Cn1c2c(c3cc(C)ccc31)CN(C)CC2)c1ccncc1 (single isomer, unassigned) [42b]
45

* * *

target: Human adrenergic α1B receptor (Homo sapiens); assay: Radioligand binding, adrenergic α1B (Protocol Group B); parameters: purchased Milipore (Millipore); settings: 0.3 μM compound; Protocol Group B; 0.3 µM
# label = met if Percentage inhibition of ligand binding, Adrenergic α1B (0.3 μM) >= 60% else not met

Examples from the recorded data:
CC(O)(Cn1c2c(c3cc(F)ccc31)C1CCCN1CC2)c1cccnc1 (stereo not drawn) [57b] | not met
Cc1cc(F)cc2c3c(n(CC(O)c4ccncc4)c12)CCN1CCCC31 (single isomer, unassigned) [136b] | met
Cc1ccc2c(c1)c1c(n2CC(C)(O)c2ccncc2)CC2CCCN2C1 (single isomer, unassigned) [37b] | met

--- query ---
Decide: is the reported value of Percentage inhibition of ligand binding, Adrenergic α1B (0.3 μM) for CC(O)(Cn1c2c(c3cc(Cl)cc(F)c31)C1CCCN1CC2)c1cccnc1 (single isomer, unassigned) [53d] equal to or greater than 60%?
not met
